src = ChEMBL document CHEMBL1201862

List of GI50 values.
# Tested on: IGROV-1
# assayRemarks: NCI tumour cell line growth inhibition, 48 h
Active and inactive are the calls of the source. Cut-off read from the data, not from the text of the source: active = GI50 up to about 1.1 µM and inactive = higher.
reportedProperty: GI50

molecule=Cn1c(N/N=C/c2ccccc2)nc(-c2ccc3c(c2)OCO3)c(C#N)c1=O systemname=IGROV-1 reportedproperty=GI50 testvalue="20.9 µM (inactive)"
molecule=CC(C)O/C=C1\C(=O)C2(SCCS2)[C@H]2CCCC[C@@H]12 systemname=IGROV-1 reportedproperty=GI50 testvalue="49.7 µM (inactive)"
molecule="CCCC1(NC(=O)C(F)(F)F)CC(OC)OC2COC(c3ccccc3)OC21 (stereo unspecified)" systemname=IGROV-1 reportedproperty=GI50 testvalue="> 100 µM (inactive)"
molecule="CC(=O)c1ccc2c(c1)CC1(C2)Cc2ccc3c(c2C1=O)CCC3 (stereo unspecified)" systemname=IGROV-1 reportedproperty=GI50 testvalue="55.2 µM (inactive)"
molecule="C[N+](C)(C)C1CC([N+](C)(C)C)C2c3ccccc3C21 (stereo unspecified)" systemname=IGROV-1 reportedproperty=GI50 testvalue="> 100 µM (inactive)"
molecule=O=C(O)Cc1cccnc1 systemname=IGROV-1 reportedproperty=GI50 testvalue="> 100 µM (inactive)"
molecule=S=C(CSc1ccccc1)Nc1cccc2ccccc12 systemname=IGROV-1 reportedproperty=GI50 testvalue="72.8 µM (inactive)"
molecule="CC(C)(C)C1=C(Br)C(O)(C(C)(C)C)OP1(=O)c1ccccc1 (stereo unspecified)" systemname=IGROV-1 reportedproperty=GI50 testvalue="> 100 µM (inactive)"
molecule=Cc1nc2sccn2c1C(=O)NN systemname=IGROV-1 reportedproperty=GI50 testvalue="> 100 µM (inactive)"
molecule=Nc1ncnc2c1ncn2[C@@H]1C[C@H](NO)[C@@H](O)[C@H]1O systemname=IGROV-1 reportedproperty=GI50 testvalue="> 100 µM (inactive)"
molecule=CCOC(=O)CSc1nc(-c2ccccc2)c(C#N)c(=O)[nH]1 systemname=IGROV-1 reportedproperty=GI50 testvalue="> 100 µM (inactive)"

---

# Tested on: MDA-N
# assayRemarks: NCI tumour cell line growth inhibition, 48 h
Calls of active or inactive are those of the source. Rule as the data show it: active = GI50 up to about 1.1 µM and inactive = higher.
Outcomes: TRUE = active, FALSE = inactive

compound="CC1(C)CCCCCC(C)(CCCCCCCCCCCO)C1=O (stereo unspecified)" classlabel=FALSE
compound=C=CCc1cc(-c2cc(CC=C)c(O)c(CN(CCCl)CCCl)c2)cc(CN(CCCl)CCCl)c1O classlabel=FALSE
compound="CC1(C)CCC(=O)NC1CC(=O)CC1NC(=O)CCC1(C)C (stereo unspecified)" classlabel=FALSE
compound=O=C(N/N=C(COc1ccccc1)\N=C\c1cccnc1)c1ccncc1 classlabel=FALSE
compound=CC1=CC(=O)c2ccc3c4ccccc4n(C)c3c2C1=O classlabel=FALSE
compound=CC1(C)CC(=O)c2c(nc3c4c([nH]c(-c5ccc(Br)cc5)c24)CC(C)(C)C3)C1 classlabel=FALSE
compound=COc1ccc2c(c1)/C(=C\c1c(Cl)[nH]c3cc(C)c(OC)cc13)C(=O)N2 classlabel=TRUE
compound=CC1(C)OP(=O)(O)CC1=O classlabel=FALSE
compound=N=C(CC(=O)Nc1ccccn1)c1ccccc1 classlabel=FALSE
compound=O=C(Nc1ccccc1)c1cc(S(=O)(=O)Nc2n[nH]c(=O)n2-c2ccccc2)c(S)cc1Cl classlabel=FALSE
compound=O=C(c1cccs1)N(C(=S)OC12CC3CC(CC(C3)C1)C2)c1ccccc1 classlabel=FALSE

---

# System: ACHN
# assayRemarks: NCI tumour cell line growth inhibition, 48 h
The source made the active and inactive calls. No stated cut-off is given here; in the data, active = GI50 up to about 1.1 µM and inactive = higher.
reportedProperty: GI50

compound=COc1ccc(CCCC(=O)O)c(C)c1 reportedproperty=GI50 testvalue="35.1 µM (inactive)"
compound=O=C1NC(=O)C(c2c[nH]c3ccccc23)=C1c1cn(C(c2ccccc2)(c2ccccc2)c2ccccc2)cn1 reportedproperty=GI50 testvalue="4.8 µM (inactive)"
compound="COc1ccc(C(=O)C(c2ccc(OC)cc2)C2(O)C(=O)Nc3c(C)cc(Cl)cc32)cc1 (stereo unspecified)" reportedproperty=GI50 testvalue="> 100 µM (inactive)"
compound="CCN1C(=O)c2ccccc2C1(O)c1ccc(Cl)cc1 (stereo unspecified)" reportedproperty=GI50 testvalue="46.5 µM (inactive)"
compound=CCc1oc2ccccc2c1C(=O)c1cc(Br)c(O)c(Br)c1 reportedproperty=GI50 testvalue="17.5 µM (inactive)"
compound="CCOC(=O)/C(=C\\NCC(O)c1ccccc1)c1nc2ccccc2[nH]1 (stereo unspecified)" reportedproperty=GI50 testvalue="11 µM (inactive)"
compound=C=CCc1cc(OC)c(O)c(C(=O)/C=C/c2ccc(OC)c(OC)c2)c1 reportedproperty=GI50 testvalue="19.9 µM (inactive)"
compound="O=CC(O)C(O)C(O)C1CNC(=S)O1 (stereo unspecified)" reportedproperty=GI50 testvalue="> 100 µM (inactive)"
compound="COC1=NC(NC2OCC(O)C(O)C2O)=C(NC(C)=O)CN1C (stereo unspecified)" reportedproperty=GI50 testvalue="> 100 µM (inactive)"
compound=COc1ccc2[nH]c3c(C)c4ncccc4c(C)c3c2c1 reportedproperty=GI50 testvalue="5.2 µM (inactive)"
compound=Cc1nc2ccc(C(F)(F)F)cc2nc1NCc1ccc(Cl)c(Cl)c1 reportedproperty=GI50 testvalue="14.8 µM (inactive)"

---

# System: OVCAR-8
# assayRemarks: NCI tumour cell line growth inhibition, 48 h
Calls of active or inactive are those of the source. Cut-off read from the data, not from the text of the source: active = GI50 up to about 1.1 µM and inactive = higher.
Outcome codes: t = active, f = inactive

molecule="C=CCc1ccc(O)c(-c2cc(C3Oc4c(-c5cc(CC=C)ccc5O)cc(O)cc4[C@@H]3CO)ccc2O)c1 (stereo partly drawn)" classlabel=f
molecule=Cc1cc(O)c(C(c2ccncc2)c2c(O)cc(C)[nH]c2=O)c(=O)[nH]1 classlabel=f
molecule="C[N+](C)(C)C1CC([N+](C)(C)C)C2c3ccccc3C21 (stereo not drawn)" classlabel=f
molecule="COc1cccc(C2c3cc4c(cc3OC3COC(=O)C32)OCO4)c1OC (stereo not drawn)" classlabel=f
molecule="CC1CCC/C1=C(/I)C(=O)c1ccccc1 (stereo not drawn)" classlabel=f
molecule=CN(/N=C\c1ccnc2ccccc12)c1ccccc1 classlabel=f
molecule=C=CCc1cc(OC)c(O)c(C(=O)/C=C/c2ccc(OC)c(OC)c2)c1 classlabel=f
molecule="O=c1[nH]cc(COCC(O)CO)c(=O)[nH]1 (stereo not drawn)" classlabel=f
molecule=CSc1nnc(COc2ccc(Cl)cc2)o1 classlabel=f
molecule="CC(OP(=O)(O)O)C(N)C(=O)O (stereo not drawn)" classlabel=f
molecule=Cc1ccc(S(=O)(=O)N2CCN(S(=O)(=O)c3ccc(C)cc3)Cc3ccccc3C2)cc1 classlabel=f
molecule=C#C[C@]1(O)CC[C@H]2[C@@H]3CCC4=C/C(=N/CCOC(=O)c5cccc6cc7ccccc7nc56)CC[C@@H]4[C@H]3CC[C@@]21C classlabel=f
molecule=CCC(C)(C)n1c(C)nc2c1C(=O)c1ccccc1C2=O classlabel=f
molecule="OCC1OC(n2ccc3cnccc32)CC1O (stereo not drawn)" classlabel=f
molecule="COC(=O)C1CC(=O)CCC1c1ccccc1 (stereo not drawn)" classlabel=f
molecule=COc1nc2[nH]ccc2c(=O)[nH]1 classlabel=f
molecule="COc1ccc(C2COc3cc(O)c(O)cc3C2)cc1 (stereo not drawn)" classlabel=f
molecule=NC1=CN(Cc2ccccc2)C2=N/C(=C\c3ccco3)C(=O)N12 classlabel=f
molecule=COc1ccc2c(c1)/C(=C\c1c(Cl)[nH]c3cc(C)c(OC)cc13)C(=O)N2 classlabel=f
molecule=CC(C)O/C=C1\C(=O)C2(SCCS2)[C@H]2CCCC[C@@H]12 classlabel=f
molecule="OC12CCC3(OC4CCCCO4)c4ccccc4C3C1c1ccccc12 (stereo not drawn)" classlabel=f
molecule=COc1ccc(CCCC(=O)O)c(C)c1 classlabel=f
molecule="COc1cc2cc(C(=O)N3CC(CCl)c4c3cc(O)c3ccccc43)[nH]c2c(OC)c1OC (stereo not drawn)" classlabel=t

---

# Test system: SF-268
# assayRemarks: NCI tumour cell line growth inhibition, 48 h
Activity calls are given as the source filed them. Rule as the data show it: active = GI50 up to about 1.1 µM and inactive = higher.
Outcome codes: active, inactive

compound=O=C(/C=C/c1ccc2c(c1)OCO2)c1ccccc(=O)c1O classlabel=inactive
compound=CN(C)CCCNc1c2c(nc3ccc(Cl)cc13)CCCC2 classlabel=inactive
compound="CC(=O)OC1C(C)OC(OC2C[C@](O)(C(C)=O)Cc3c(O)c4c(c(O)c32)C(=O)c2ccccc2C4=O)C(F)C1OC(C)=O (some centres not stated)" classlabel=active
compound="CCOC(=O)/C(=C\\NCC(O)c1ccccc1)c1nc2ccccc2[nH]1 (configuration not stated)" classlabel=inactive
compound=CCOC(=O)/C=C(/CN1C(=O)c2ccccc2C1=O)c1ccccc1 classlabel=inactive
compound="Nc1nc(SCCC/C=C/B(O)O)nc2c1ncn2C1OC(COP(=O)(O)O)C(O)C1O (configuration not stated)" classlabel=inactive
compound="CC1(CNCc2ccccc2)CC(CCc2ccccc2)N(C(=O)c2ccc([N+](=O)[O-])cc2)C1Cc1ccc(O)cc1 (configuration not stated)" classlabel=inactive
compound=Cc1nc2sccn2c1C(=O)NN classlabel=inactive
compound="CC(C)(C)C1=C(Br)C(O)(C(C)(C)C)OP1(=O)c1ccccc1 (configuration not stated)" classlabel=inactive
compound=O=C1C(=Cc2ccc(F)cc2)C(=O)c2ccccc21 classlabel=inactive
compound=O=C1NC(=O)C(C(=O)C(=O)Nc2cccc(C(F)(F)F)c2)C(=O)N1 classlabel=inactive
compound=N#Cc1ccccc1NC(=O)c1ccccc1 classlabel=inactive
compound=Cc1cc(C)nc(NS(=O)(=O)c2ccc(NC(=O)c3ccc4nc5ccccc5c(Nc5ccc(S(N)(=O)=O)cc5)c4c3)cc2)n1 classlabel=inactive
compound="CCN1c2ccccc2C(C(SC)S(=O)(=O)c2ccc(C)cc2)c2c1[nH]c(=O)n(C)c2=O (configuration not stated)" classlabel=inactive
compound=Cc1cc(N(CCC#N)CCC#N)ccc1/C=C\C(=O)Nc1ccccc1 classlabel=inactive
compound=CSc1nc(C#N)c(/N=C\N(C)C)n1C classlabel=inactive
compound=COc1ccc2c(c1)CCc1c-2n(CCN2CCCCC2)c2ccc(OC)cc12 classlabel=inactive
compound="N#CC1(C#N)C2C=CC(C3CCC=C32)C1(C#N)C#N (configuration not stated)" classlabel=inactive
compound="C[N+]1(c2ccccc2)C=C(c2ccccc2)SC1=S (configuration not stated)" classlabel=inactive
compound="C=C(Cl)C(Cl)(CBr)CCCC(C)(C)Cl (configuration not stated)" classlabel=inactive
compound="O=C(O)c1cccc(CC(Br)C(=O)O)c1 (configuration not stated)" classlabel=inactive
compound="CC1(OCc2ccccc2)C(=O)N2C1NCC2(C)C (configuration not stated)" classlabel=inactive
